# Assay summary: chemical genetic growth profiling, strain panel (AID 1159580);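 also: tested at 20 µM; growth read once vehicle control cultures reached saturation at 30 °C; 1 = growth at the plate median or of vehicle wells; lower values mean less growth of the strain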
# Experimental context: S. cerevisiae deletion strains, growth OD, locus YOR144C, strain elg1, active compounds read low
The campaign covered roughly 5,500 compounds. About 2,000 (36%) were called active. Another 18% or so got no clear call; they are omitted. The list shows a part of the results.
Parameter normalized growth: see the listing below.
Just the number, please, no unit attached.

O=C(O)CCC(=O)c1ccc(-c2ccccc2)cc1: 0.972

Task: Look up normalized growth of CC12CCCC(O)(C1)C1CC(C)(C)C1CC2 (stereo not given) and report it.
Output: 1

Task: Look up normalized growth of CC(C)C1=CC2=CCC3[C@](C)(CCC[C@]3(C)C(=O)O)C2CC1 (stereo not given in full) and report it.
Output: 0.982

Task: Look up normalized growth of O=C(O)c1cc(=O)c2c(OCC(O)COc3cccc4oc(C(=O)O)cc(=O)c34)cccc2o1 and report it.
Output: 1.02

###

# Assay summary: chemical genetic growth profiling, strain panel (AID 1159580);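 also: tested at 20 µM; growth read once vehicle control cultures reached saturation at 30 °C; 1 = growth at the plate median or of vehicle wells; lower values mean less growth of the strain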
# Experimental context: S. cerevisiae deletion strains, growth OD, locus YPR167C, strain met16, active compounds read low
Among all 5,500 compounds or so, about 2,000 (36%) were called active. About 18% were inconclusive and are not listed. This is one part of the list.
Readout name: normalized growth
Just the number, please, no unit attached.

CN(Cc1cnc2nc(N)nc(N)c2n1)c1ccc(C(=O)NC(CCC(=O)O)C(=O)O)cc1 (stereo not drawn): 0.975
Nc1nc2ncc(CNc3ccc(C(=O)N[C@@H](CCC(=O)O)C(=O)O)cc3)nc2c(=O)[nH]1: 0.97

Please examine the following record next.
Task: Look up normalized growth of CS(=O)(=O)OCCCCOS(C)(=O)=O and report it.
Output: 0.975

###

# Assay summary: chemical genetic growth profiling, strain panel (AID 1159580);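 also: tested at 20 µM; growth read once vehicle control cultures reached saturation at 30 °C; 1 = growth at the plate median or of vehicle wells; lower values mean less growth of the strain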
# Experimental context: S. cerevisiae deletion strains, growth OD, locus YBR171W, strain sec66, active compounds read low
In all, about 5,500 compounds went through this assay and about 2,000 (36%) were called active. About 18% were inconclusive and are not listed. The list shows a part of the results.
Readout name: normalized growth
Just the number, please, no unit attached.

O=C(O)c1cc(=O)c(O)c2c(O)c(O)ccc2c1: 0.985
C[C@H](COc1ccccc1)N[C@H](C)[C@H](O)c1ccc(O)cc1: 0.997
O=C(O)c1cc(=O)c(O)c2c(O)c(O)c(O)cc2c1: 0.812

Task: Look up normalized growth of CCn1cc(C(=O)O)c(=O)c2cnc(N3CCNCC3)nc21 and report it.
Output: 1.04

Task: Look up normalized growth of CC1(C)CC2C1CCC1(C)OC1CCC2(C)O (stereo unspecified) and report it.
Output: 1.06

Task: Look up normalized growth of OC/C=C/c1ccc(O)c(O)c1 and report it.
Output: 1.01

Task: Look up normalized growth of CCn1cc(C(=O)O)c(=O)c2cc3c(cc21)OCO3 and report it.
Output: 0.962

Task: Look up normalized growth of CC1=C(/C=C/C(C)=C/C=C/C(C)=C/CO)C(C)(C)CCC1 and report it.
Output: 1.01

Task: Look up normalized growth of O=C(O)c1cc(=O)c2c(OCC(O)COc3cccc4oc(C(=O)O)cc(=O)c34)cccc2o1 and report it.
Output: 0.96

Task: Look up normalized growth of O=C1OCCN1/N=C\c1ccc([N+](=O)[O-])o1 and report it.
Output: 0.987

Task: Look up normalized growth of CCn1cc(C(=O)O)c(=O)c2cnc(N3CCCC3)nc21 and report it.
Output: 1
